IC50 for PIK3CB (Human) - collated from the literature.

Given Nc1nc2cc(-c3ccc4ncc(C(=O)N5CC[C@@H](n6cccn6)C5)n4c3)ccc2o1 , state its recorded IC50.
> 10000 nM

Given Nc1nc2ccc(-c3ccc4nnc(-c5ccncc5)n4c3)cc2o1 , state its recorded IC50.
< 1000 nM

Given C[C@H](NC(=O)c1c(N)nn2cccnc12)c1cc2ccsc2c(=O)n1-c1ccccc1 , state its recorded IC50.
1000 to 10000 nM

Given C[C@H](Nc1ncnc2[nH]cnc12)c1cc2cccc(Cl)c2c(C(=O)NC2CCC(O)CC2)n1 (some centres unmarked) , state its recorded IC50.
> 10000 nM

Given Cc1cccc2cc(Cn3nc(-c4cc(O)cc(F)c4)c4c(N)ncnc43)n(C(C)C)c(=O)c12 , state its recorded IC50.
< 1000 nM

Given Cc1nn(Cc2nc3nccc(C)c3c(=O)n2-c2ccccc2F)c2ncnc(N)c12 , state its recorded IC50.
> 10000 nM

Given Cc1nc2c(-c3nnc[nH]3)cc(-c3ccnc(C#N)c3)cc2n1-c1ccnc2c(F)cccc12 (single isomer, unassigned) , state its recorded IC50.
9 nM

Given Cc1nc(C)c(S(=O)(=O)Nc2cc(-c3ccc4ncn(CCCC(=O)N5CCCC5)c(=O)c4c3)cnc2C)s1 , state its recorded IC50.
159 nM
